# IC50 per entry
Molecular target: Voltage-gated inwardly rectifying potassium channel KCNH2 (Homo sapiens)
Sequence (Q12809 whole entry): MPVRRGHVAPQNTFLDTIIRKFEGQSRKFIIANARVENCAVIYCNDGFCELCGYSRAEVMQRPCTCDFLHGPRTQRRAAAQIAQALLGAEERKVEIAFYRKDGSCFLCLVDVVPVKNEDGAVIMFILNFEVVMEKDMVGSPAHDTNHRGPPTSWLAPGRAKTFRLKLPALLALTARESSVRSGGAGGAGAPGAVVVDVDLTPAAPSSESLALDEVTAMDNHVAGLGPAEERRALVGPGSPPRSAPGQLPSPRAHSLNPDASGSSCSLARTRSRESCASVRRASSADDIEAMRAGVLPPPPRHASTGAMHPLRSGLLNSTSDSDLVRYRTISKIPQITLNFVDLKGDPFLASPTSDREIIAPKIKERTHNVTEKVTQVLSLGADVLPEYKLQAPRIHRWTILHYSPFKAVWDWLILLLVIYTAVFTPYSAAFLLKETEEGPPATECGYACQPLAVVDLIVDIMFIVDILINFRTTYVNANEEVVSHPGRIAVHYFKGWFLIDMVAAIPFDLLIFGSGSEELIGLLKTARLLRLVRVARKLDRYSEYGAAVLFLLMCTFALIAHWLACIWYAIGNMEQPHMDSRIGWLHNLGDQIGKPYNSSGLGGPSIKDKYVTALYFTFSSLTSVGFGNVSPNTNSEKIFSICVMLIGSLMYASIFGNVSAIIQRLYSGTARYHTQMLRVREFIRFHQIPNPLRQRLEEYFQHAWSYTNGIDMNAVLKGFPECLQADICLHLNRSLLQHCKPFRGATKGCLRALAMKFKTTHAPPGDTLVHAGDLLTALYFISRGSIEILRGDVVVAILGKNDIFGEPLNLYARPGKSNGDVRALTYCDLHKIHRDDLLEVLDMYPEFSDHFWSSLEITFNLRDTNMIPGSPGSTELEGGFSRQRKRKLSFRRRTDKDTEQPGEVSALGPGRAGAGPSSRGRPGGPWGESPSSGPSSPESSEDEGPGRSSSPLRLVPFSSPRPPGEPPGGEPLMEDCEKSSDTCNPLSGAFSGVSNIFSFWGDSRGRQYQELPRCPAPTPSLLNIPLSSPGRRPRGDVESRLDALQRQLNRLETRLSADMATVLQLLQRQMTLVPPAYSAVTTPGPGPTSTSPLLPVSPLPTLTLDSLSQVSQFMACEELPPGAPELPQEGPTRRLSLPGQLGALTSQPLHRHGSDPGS
Assay: Displacement of [3H]astemizole from human ERG channel transfected in HEK293 cells after 60 mins by liquid scintillation counting analysis
Quick reminder: number only, in µM, skip the unit.

1. O=C(/C=C/c1ccc2c(c1)C(=O)CC1(CCN(Cc3ccccc3)CC1)O2)NO : 3.81

Let us move to another entry and its IC50.
Provide measured IC50 value, entry: O=C(/C=C/c1ccc2c(c1)C(=O)CC1(CCN(Cc3ccc(F)cc3)CC1)O2)NO
2.38

----------
Assay: Cmax in CD1 mouse at 15 mg/kg, po
Settings: CD1, mouse, in vivo
// reported Cmax for each item listed
Provide the reading as a plain figure in nM.

1. O=C(/C=C/c1ccc2c(c1)C(=O)CC1(CCN(CCc3ccccc3)CC1)O2)NO : 2490

Fill in Cmax for record O=C(/C=C/c1ccc2c(c1)C(=O)NC1(CCN(Cc3ccc(F)cc3)CC1)O2)NO
5050

Provide measured Cmax value, entry: O=C(/C=C/c1ccc2c(c1)C(=O)NC1(CCN(Cc3ccccc3)CC1)O2)NO
2710

Output Cmax of O=C(/C=C/c1ccc2c(c1)C(=O)CC1(CCN(Cc3ccc(F)cc3)CC1)O2)NO
1830

----------
Test system: HCT-116
Experiment: Cytotoxicity against human HCT116 cells
Type: functional, cell-based
pIC50: −log10 of the molar value.
Respond with class 1 for pIC50 values of 6 and above, class 0 for values below.

Use the examples below as a reference point.
1. O=C(/C=C/c1ccc2c(c1)C(=O)NC1(CCN(Cc3ccc(F)cc3)CC1)O2)NO : class 1
2. O=C(/C=C/c1ccc2c(c1)C(=O)N(Cc1ccccc1)C1(CCN(CCc3ccccc3)CC1)O2)NO : class 0
3. CN1C(=O)c2cc(/C=C/C(=O)NO)ccc2OC12CCNCC2 : class 0

Is it the case that O=C(/C=C/c1ccc2c(c1)C(=O)NC1(CCNCC1)O2)NO has pIC50 reaching or exceeding 6?
class 0

Form field: pIC50 at least 6? Entry: CN1CCC2(CC1)Oc1ccc(/C=C/C(=O)NO)cc1C(=O)N2Cc1ccccc1
class 1

Check if pIC50 >= 6 (inclusive). Item: O=C(/C=C/c1ccc2c(c1)C(=O)NC1(CCN(CCc3ccccc3)CC1)O2)NO
class 1

I'd appreciate it if you could say whether O=C(/C=C/c1ccc2c(c1)C(=O)N(Cc1ccccc1)C1(CCN(Cc3ccccc3)CC1)O2)NO has pIC50 at least equal to 6.
class 0

Form field: pIC50 at least 6? Entry: O=C(/C=C/c1ccc2c(c1)C(=O)N(Cc1ccccc1)C1(CCN(Cc3ccc(F)cc3)CC1)O2)NO
class 0

Has O=C(/C=C/c1ccc2c(c1)C(=O)NC1(CCN(Cc3ccccc3)CC1)O2)NO a recorded pIC50 greater than or equal to 6?
class 1

Please indicate if the recorded pIC50 for O=C(/C=C/c1ccc2c(c1)C(=O)CC1(CCN(CCc3ccccc3)CC1)O2)NO meets or exceeds 6.
class 1

----------
Assay: Oral bioavailability in CD1 mouse at 15 mg/kg
Conditions: in vivo
MEASUREMENT TYPE: bioavailability (%)
Note: unit % is implicit; provide only the numeric part.

Past entries and their recorded results:
1. O=C(/C=C/c1ccc2c(c1)C(=O)NC1(CCN(Cc3ccc(F)cc3)CC1)O2)NO : 35
2. O=C(/C=C/c1ccc2c(c1)C(=O)NC1(CCN(Cc3ccccc3)CC1)O2)NO : 42.8
3. O=C(/C=C/c1ccc2c(c1)C(=O)CC1(CCN(Cc3ccc(F)cc3)CC1)O2)NO : 27.6
4. O=C(/C=C/c1ccc2c(c1)C(=O)CC1(CCN(Cc3ccccc3)CC1)O2)NO : 31.5

# input for lookup
Return reported bioavailability. Input compound: O=C(/C=C/c1ccc2c(c1)C(=O)CC1(CCN(CCc3ccccc3)CC1)O2)NO
51.1

----------
Property: half-life; scope: individual compounds
Experiment: Terminal half life in CD1 mouse at 5 mg/kg, iv and 15 mg/kg, po
Assay type: ADME, organism-based
Settings: in vivo, read-out: beta t1/2 (converted)
Write the quantity with the unit trailing the number.

1) O=C(/C=C/c1ccc2c(c1)C(=O)NC1(CCN(Cc3ccc(F)cc3)CC1)O2)NO : 6.9 h

Turning now to a further compound:
Find the measured half-life of O=C(/C=C/c1ccc2c(c1)C(=O)NC1(CCN(Cc3ccccc3)CC1)O2)NO and report it.
13.4 h

----------
Test system: A549
Experiment: Cytotoxicity against human A549 cells
Format: functional, cell-based
For each record, check the reported IC50: if it is below 2000 nM write satisfied, else write not satisfied.

Dear colleague, could you confirm whether IC50 of O=C(/C=C/c1ccc2c(c1)C(=O)NC1(CCNCC1)O2)NO falls below 2000 nM? Thanks.
not satisfied

Bench note: check whether O=C(/C=C/c1ccc2c(c1)C(=O)N(Cc1ccccc1)C1(CCN(CCc3ccccc3)CC1)O2)NO shows IC50 below 2000 nM
satisfied

Could you please tell me whether IC50 recorded for CN1CCC2(CC1)Oc1ccc(/C=C/C(=O)NO)cc1C(=O)N2Cc1ccccc1 is less than 2000 nM?
satisfied

State whether 2000 nM exceeds IC50 recorded for O=C(/C=C/c1ccc2c(c1)C(=O)N(Cc1ccccc1)C1(CCN(Cc3ccccc3)CC1)O2)NO .
not satisfied

API: query returns whether the compound falls strictly under 2000 nM in IC50. Query: O=C(/C=C/c1ccc2c(c1)C(=O)NC1(CCN(Cc3ccccc3)CC1)O2)NO
satisfied

Answer whether the compound CN1C(=O)c2cc(/C=C/C(=O)NO)ccc2OC12CCN(Cc1ccccc1)CC2 has IC50 strictly less than 2000 nM
not satisfied

In the record for CN1C(=O)c2cc(/C=C/C(=O)NO)ccc2OC12CCN(CCc1ccccc1)CC2 , is IC50 less than 2000 nM?
not satisfied

----------
Assay: AUC (0 to infinity) in CD1 mouse at 15 mg/kg, po
Type: ADME, organism-based
Design: time infinity, dose 15 mg/kg, route oral
Conditions: plasma
Below, each of the compounds is paired with its reported AUC(0-inf) value.

1) O=C(/C=C/c1ccc2c(c1)C(=O)NC1(CCN(Cc3ccccc3)CC1)O2)NO : 1960 ng·h/mL
2) O=C(/C=C/c1ccc2c(c1)C(=O)CC1(CCN(CCc3ccccc3)CC1)O2)NO : 1600 ng·h/mL
3) O=C(/C=C/c1ccc2c(c1)C(=O)CC1(CCN(Cc3ccc(F)cc3)CC1)O2)NO : 1240 ng·h/mL

Given the compound O=C(/C=C/c1ccc2c(c1)C(=O)NC1(CCN(Cc3ccc(F)cc3)CC1)O2)NO , write its reported AUC(0-inf).
1980 ng·h/mL

----------
Tested on: A549
Assay: Cytotoxicity against human A549 cells
Format: functional, cell-based
MEASUREMENT TYPE: pIC50
The meaning of pIC50 here: minus log10 of the concentration in molar units.

Before answering, review these 2 worked examples.
1. CN1C(=O)c2cc(/C=C/C(=O)NO)ccc2OC12CCNCC2 : 4.75
2. CN1CCC2(CC1)NC(=O)c1cc(/C=C/C(=O)NO)ccc1O2 : 5.57

# return recorded pIC50 for input O=C(/C=C/c1ccc2c(c1)C(=O)N(Cc1ccccc1)C1(CCN(Cc3ccc(F)cc3)CC1)O2)NO
5.52

Recall and state the measured pIC50 for O=C(/C=C/c1ccc2c(c1)C(=O)NC1(CCN(CCc3ccccc3)CC1)O2)NO .
5.85

Return value of pIC50 for input O=C(/C=C/c1ccc2c(c1)C(=O)NC1(CCN(Cc3ccc(F)cc3)CC1)O2)NO , no commentary.
5.78

Supply reported pIC50 belonging to this compound: O=C(/C=C/c1ccc2c(c1)C(=O)CC1(CCN(CCc3ccccc3)CC1)O2)NO
6.26

Return pIC50 (reported value) for this compound: CN1CCC2(CC1)Oc1ccc(/C=C/C(=O)NO)cc1C(=O)N2C
5.45

Query pIC50 for O=C(/C=C/c1ccc2c(c1)C(=O)CC1(CCN(Cc3ccc(F)cc3)CC1)O2)NO
5.88

Quote pIC50 reported for O=C(/C=C/c1ccc2c(c1)C(=O)N(Cc1ccccc1)C1(CCNCC1)O2)NO please.
5.50

Please give measured pIC50 of the following entry: CN1C(=O)c2cc(/C=C/C(=O)NO)ccc2OC12CCN(Cc1ccc(F)cc1)CC2
5.68

----------
Test: Metabolic stability in mouse liver microsomes after 30 mins by LC-MS/MS analysis
Format: ADME, Microsome
Conditions: read-out: Stability
MEASUREMENT TYPE: remaining at 0.5 h (%)
Expressed in %, but write only the number.

1. O=C(/C=C/c1ccc2c(c1)C(=O)NC1(CCN(CCc3ccccc3)CC1)O2)NO : 46
2. O=C(/C=C/c1ccc2c(c1)C(=O)NC1(CCN(Cc3ccccc3)CC1)O2)NO : 75
3. CN1C(=O)c2cc(/C=C/C(=O)NO)ccc2OC12CCN(Cc1ccc(F)cc1)CC2 : 39

Give a short answer stating reported remaining at 0.5 h for O=C(/C=C/c1ccc2c(c1)C(=O)CC1(CCN(Cc3ccccc3)CC1)O2)NO .
32

Please report remaining at 0.5 h for the following molecule: CN1CCC2(CC1)Oc1ccc(/C=C/C(=O)NO)cc1C(=O)N2Cc1ccccc1
19

Please indicate remaining at 0.5 h recorded for O=C(/C=C/c1ccc2c(c1)C(=O)NC1(CCN(Cc3ccc(F)cc3)CC1)O2)NO
98
